Experiment: Half life in immunocompromized SKH1 mouse plasma at 12.5 mg/kg, sc
Assay type: ADME, organism-based
Parameters: dose 12.5 mg/kg, route subcutaneous
result type: half-life (min)
API: value field is a number in min; no unit string.

Q: Which half-life is listed for C[C@@H](O)[C@H]1C(=O)N2C(C(=O)O)=C(S[C@@H]3CN[C@H](C(=O)N(C)C)C3)[C@H](C)[C@H]12 ?
Ans: 13.6

----------
Test: Tmax in immunocompromized SKH1 mouse plasma at 50 mg/kg, sc
Assay type: ADME, organism-based
Design: dose 50 mg/kg, route subcutaneous
result type: Tmax
State the result as a value with its unit after it.

Observe how each entry below is paired with its result.
- compound structure string: "Nc1nc(/C(=N/O)C(=O)N[C@@H]2C(=O)N3C(C(=O)O)=C(/C=C4\\CCN([C@@H]5CCNC5)C4=O)CS[C@H]23)ns1"
  result type: "Tmax"
  value observed: "7.5 min"
- compound structure string: "C[C@@H](O)[C@H]1C(=O)N2C(C(=O)O)=C(S[C@@H]3CN[C@H](C(=O)N(C)C)C3)[C@H](C)[C@H]12"
  result type: "Tmax"
  value observed: "7.5 min"

// moving on: another record for Tmax
Q: Which Tmax is listed for CO/N=C(\C(=O)N[C@@H]1C(=O)N2C(C(=O)[O-])=C(C[N+]3(C)CCCC3)CS[C@H]12)c1csc(N)n1 ?
Ans: 7.5 min
